I'd appreciate it if you could supply TGI values for the items below.
test system: SK-MEL-28 melanoma; test: NCI tumour cell line growth inhibition, 48 h

In the examples that follow, each entry is paired with its recorded TGI.
Qu. Supply measured TGI of CC(=O)N1C(NN(C)C)CCN1c1ccccc1 (stereo not drawn) in your reply.
Ans. > 10 µM

Qu. Supply measured TGI of COCn1cnc2c(=O)n(-c3ccc(OC)cc3)c(=S)n(-c3ccc(OC)cc3)c21 in your reply.
Ans. > 100 µM

Qu. Supply measured TGI of Cc1ccc(N(C(=O)Nc2ccc(F)c(Cl)c2)C2=NCC(C)S2)cc1 (stereo not drawn) in your reply.
Ans. > 100 µM

Qu. Supply measured TGI of Cc1cc2[nH]c(=O)c3c4ccccc4cn3c2cc1C in your reply.
Ans. 35.1 µM

Qu. Supply measured TGI of NCCN.NCCN.O=C([O-])CCl.O=C([O-])CCl.[Co+3].[O-][Cl+3]([O-])([O-])[O-] in your reply.
Ans. > 100 µM

Qu. Supply measured TGI of N=[N+]=CC(=O)CCC(NC(=O)C(CCC(=O)C=[N+]=N)NC(=O)CCC(N)C(=O)O)C(=O)O (stereo not drawn) in your reply.
Ans. > 100 µM

Qu. Supply measured TGI of O=C(NC1C=Nc2ccc([N+](=O)[O-])cc2NC1=O)c1cc(Cl)cc([N+](=O)[O-])c1 (stereo not drawn) in your reply.
Ans. > 100 µM

Qu. Supply measured TGI of O=C(c1ccccc1)[C@@H]1C[C@H](Sc2ccccc2)c2cc(Cl)ccc2N1 in your reply.
Ans. 58.9 µM

Batch request: TGI for each of the following molecules.
1. CN(C)CCCNc1c(C#N)[n+]([O-])c2cc(Cl)ccc2[n+]1[O-]
2. Cn1ccc2c(C(=O)c3ccccc3)cccc2c1=O
3. COC(=O)c1c2c(cc3c1CC1(Cc4ccc(C(C)=O)cc4C1)C3)CCC2 (stereo not drawn)

Ans.
["> 100 µM", "> 100 µM", "> 100 µM"]

Batch request: TGI for each of the following molecules.
1. CCOC(=O)/C(=C\c1cccs1)P(=O)(OCC)OCC
2. Cc1cc2nc(N3C(=O)/C(=C/c4ccccc4S)N=C3c3ccccc3)sc2cc1C

Ans.
1: 32.7 µM; 2: > 100 µM

Batch request: TGI for each of the following molecules.
1. COc1ccccc1C1c2cc3c(cc2OC(O)(CO)C1C(=O)O)OCO3 (stereo not drawn) (tested in a mixture with another compound)
2. C=C(C)[C@@H]1CC[C@]2(C)[C@H](CC=C3[C@@H]4[C@@H](C)[C@H](C)CC[C@]4(C(N)=O)CC[C@]32C)[C@@]1(C)CCC#N

Ans.
> 100 µM
22.7 µM
